Value source: patent US11999727B2

STUDY TARGET: PRMT5 (Homo sapiens, UniProt O14744)
Construct: purchased Viva (custom protein)
Sequence (O14744 whole entry): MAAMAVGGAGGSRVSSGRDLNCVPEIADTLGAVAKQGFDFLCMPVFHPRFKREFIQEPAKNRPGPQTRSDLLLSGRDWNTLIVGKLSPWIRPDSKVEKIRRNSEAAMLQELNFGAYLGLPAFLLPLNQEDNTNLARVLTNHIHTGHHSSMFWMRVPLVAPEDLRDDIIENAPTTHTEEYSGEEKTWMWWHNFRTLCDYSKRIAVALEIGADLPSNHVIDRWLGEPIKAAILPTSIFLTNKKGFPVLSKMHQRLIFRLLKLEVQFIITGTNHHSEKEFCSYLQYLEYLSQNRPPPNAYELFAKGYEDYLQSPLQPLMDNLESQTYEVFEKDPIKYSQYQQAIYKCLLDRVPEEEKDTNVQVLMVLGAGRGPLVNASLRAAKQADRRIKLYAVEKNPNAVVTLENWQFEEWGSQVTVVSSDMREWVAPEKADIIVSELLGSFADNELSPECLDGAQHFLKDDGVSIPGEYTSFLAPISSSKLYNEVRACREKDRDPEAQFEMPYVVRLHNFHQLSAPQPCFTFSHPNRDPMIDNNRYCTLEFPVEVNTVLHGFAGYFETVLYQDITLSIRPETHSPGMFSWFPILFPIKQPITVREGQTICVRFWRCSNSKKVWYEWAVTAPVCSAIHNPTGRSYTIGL
Sequence (Q9BQA1 whole entry partner): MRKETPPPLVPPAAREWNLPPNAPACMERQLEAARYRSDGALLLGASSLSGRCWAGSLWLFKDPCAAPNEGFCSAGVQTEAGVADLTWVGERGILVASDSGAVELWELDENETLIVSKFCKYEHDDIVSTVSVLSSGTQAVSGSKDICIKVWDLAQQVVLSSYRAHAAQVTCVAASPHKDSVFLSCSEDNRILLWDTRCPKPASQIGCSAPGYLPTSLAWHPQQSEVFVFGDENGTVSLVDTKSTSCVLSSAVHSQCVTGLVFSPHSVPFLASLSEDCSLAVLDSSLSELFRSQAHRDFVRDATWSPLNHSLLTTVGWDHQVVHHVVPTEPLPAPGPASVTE
PROCEDURE DETAILS: PRMT5 biochemical IC50 assay with SAM as cofactor
STUDY CONDITIONS: PRMT5, SAM as cofactor; read-out: SAM IC50
pIC50: −log10 of the molar value.
Entries annotated with measured pIC50

• Cc1cc(NC(=O)C(=O)N2C[C@@H](C)CC[C@@H]2[C@H]2CC[C@H](O)CC2)cnc1N (single isomer, unassigned) [Compound 434] = < 6.30
• Cc1cc(NC(=O)C(=O)N2CCCCC2C2CCC2)cnc1N (stereo not shown) [Compound 182] = 6.30 to 7.30
• Cc1cc(NC(=O)C(=O)N2CC[C@H](N(C)C)C[C@H]2c2ccccc2)cnc1N (racemic) [Compound 906] = 6.30 to 7.30
• COc1ncc(NC(=O)C(=O)N2C[C@@H](C)CC[C@@H]2c2ccc3sc(CCN4CCCC4)nc3c2)cc1C(N)=O [Compound 1288] = 6.30 to 7.30
• COc1ncc(NC(=O)C(=O)N2C[C@H](C)CC[C@H]2c2ccc3[nH]c(=O)ccc3c2)cc1C(N)=O (single isomer, unassigned) [Compound 810] = < 6.30
• CCc1cc(NC(=O)C(=O)N2C[C@@H](C)CC[C@@H]2c2ccc3sc([C@@H]4CCN(C)C(=O)C4)nc3c2)cnc1N [Compound 1256] = 6.30 to 7.30
• NC(=O)c1cncc(NC(=O)C(=O)N2CC3CCC(C3)C2c2ccccc2)c1 (racemic) [Compound 86] = 6.30 to 7.30
• CCc1cc(NC(=O)C(=O)N2CC(C)CCC2c2ccc(N3CCC4C(CCCN4C)C3)cc2)cnc1N (single isomer, unassigned) [Compound 1111] = 6.30 to 7.30
• Cc1cc(NC(=O)C(=O)N2C[C@@H](C)CC[C@@H]2[C@H]2CC[C@@H](C(C)(C)C)CC2)cnc1N (single isomer, unassigned) [Compound 290] = < 6.30
• COc1ncc(NC(=O)C(=O)N2C[C@@H](C)CC[C@@H]2c2ccc3sc([C@H]4CCN(C)C4)nc3c2)cc1C(N)=O (racemic) [Compound 1260] = > 7.30

Looking up CCc1cc(NC(=O)C(=O)N2C[C@@H](C)CC[C@@H]2c2ccc(C(=O)NC)s2)cnc1N (single isomer, unassigned) [Compound 840] , I see its pIC50 listed as 6.30 to 7.30

The compound listed as Cc1cc(NC(=O)C(=O)N2CCCC[C@@H]2c2cccnc2)cnc1N (single isomer, unassigned) [Compound 74] shows pIC50 equal to < 6.30

For NC(=O)c1cncc(NC(=O)C(=O)N2CCC3(CC2)CCS(=O)(=O)CC3)c1 [Compound 195] the compound record lists pIC50 as < 6.30
